- STUDY CONDITIONS: 333.15 K; 80100 kPa; Liquid; Frequency=1.5 MHz; Single path-length method
MEASURED QUANTITY: speed of sound (m/s)
Response body: numeric value in m/s, unit text excluded.

Known speed of sound results, listed for orientation:
Short answer for `CO` : speed of sound was 1380.8

Short answer for `Cc1ccccc1` : speed of sound was 1513.1

Short answer for `O` : speed of sound was 1689.6

Short answer for `CCO` : speed of sound was 1429.6

Short answer for `CCCCCCC` : speed of sound was 1456

Further cases:
Short answer for `CCCO` : speed of sound was 1479.3

Short answer for `CCCCCC` : speed of sound was 1425.6

Short answer for `CCCCCCCC` : speed of sound was 1480.2
